From: patent US20170037106A1

# tested target: T1, RXFP1 (LGR7) receptor, on stably transfected HEK-293T cells (UniProt Q9HBX9 1-757, limits assumed)
# T1 construct: whole, on cells; also called HEK-RXFP1 cells
# T1 sequence (looked up): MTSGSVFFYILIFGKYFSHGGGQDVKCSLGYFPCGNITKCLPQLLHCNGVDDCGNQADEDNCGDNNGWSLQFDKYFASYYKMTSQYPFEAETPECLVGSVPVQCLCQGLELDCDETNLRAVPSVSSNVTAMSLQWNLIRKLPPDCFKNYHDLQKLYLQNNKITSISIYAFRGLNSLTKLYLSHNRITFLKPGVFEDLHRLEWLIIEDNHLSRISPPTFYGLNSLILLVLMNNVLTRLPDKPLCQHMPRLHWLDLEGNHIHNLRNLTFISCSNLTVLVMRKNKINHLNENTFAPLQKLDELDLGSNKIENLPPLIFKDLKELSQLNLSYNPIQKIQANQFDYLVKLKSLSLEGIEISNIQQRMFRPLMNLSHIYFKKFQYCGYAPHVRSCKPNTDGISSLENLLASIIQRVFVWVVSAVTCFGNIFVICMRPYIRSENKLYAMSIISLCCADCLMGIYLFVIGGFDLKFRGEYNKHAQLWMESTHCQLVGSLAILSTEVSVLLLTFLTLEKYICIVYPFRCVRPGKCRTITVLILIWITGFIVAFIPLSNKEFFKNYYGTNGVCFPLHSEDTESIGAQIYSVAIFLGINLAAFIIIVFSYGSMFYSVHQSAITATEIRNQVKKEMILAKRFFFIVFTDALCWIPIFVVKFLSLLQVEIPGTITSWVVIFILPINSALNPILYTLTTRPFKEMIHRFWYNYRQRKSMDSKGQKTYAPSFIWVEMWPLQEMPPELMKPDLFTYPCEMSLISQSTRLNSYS
# assay protocol: Eu-H2 relaxin competition, whole HEK-293T cells stably expressing RXFP1
Ends that are not written are not given here.
measurement kind: pKi (log M)

binder | value reported
VIKLCGRELVRAQIAICGMSTWSKRSL-NH2 (not fully specified; printed as VIKLCGRELVRAQIAICGMSTWSKRSL-NH2; also: oxidised (ox), disulfide pattern not described, also called B7-33ox) [Native B7-33] | 6.15
DSWMEEVIKLSGRELVRAQIAISGMSTWSKRSL-NH2 [B1-33 C11.23S] | 5.33
Ac-VIKLSGRELVRAQIAISGMSTWSKRSL-NH2 [AcB7-33 C11.23S] | 6
native H2 relaxin (human relaxin-2, heterodimer of A chain and B1-29 B chain) (ligand, disulfide (positions not given here); ends not checked; also: three disulfides (two inter-chain, one within A chain), places not given here, mature; Two chains linked by three disulfide bonds (two inter-chain, one within the A chain); also called native human relaxin-2; Eu^3+-labelled H2 relaxin (tracer form)) chain 1: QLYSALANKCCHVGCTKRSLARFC chain 2: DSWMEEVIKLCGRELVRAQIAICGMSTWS | 8.96
Ac-VIKLSGRELVRAQIAISGMSTWSKKKK-NH2 (AcB7-29 C11.23S with KKKK at the C-terminus in place of KRSL) [KKKK (AcB7-29 C11.23S)] | 6.25
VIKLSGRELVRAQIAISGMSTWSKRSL-NH2 (also called single chain B7-33 C11.23S peptide) [Modified B7-33 (B7-33 C11.23S)] | 5.54
DSWMEEVIKLCGRELVRAQIAICGMSTWSKRSL-NH2 (not fully specified (bridges); printed as DSWMEEVIKLCGRELVRAQIAICGMSTWSKRSL-NH2; cysteine pairing not given here) [B1-33ox] | 6.61
